system: UMC-11; assay: relative viability (nuclei count vs DMSO), 5 days (fraction); higher = more cells survive; conditions: first compound 0.2 µM
The entries below are paired with their reported relative viability.

molecule: Cc1csc(=NC2CCCCC2)n1/N=C/c1ccc(O)c(O)c1O [MIM1] + CC(=O)Nc1cccc(-n2c(=O)n(C3CC3)c(=O)c3c(Nc4ccc(I)cc4F)n(C)c(=O)c(C)c32)c1 [Trametinib] (partner 0.02 µM)
relative viability: 0.724
//
molecule: CCNC(=O)c1noc(-c2cc(C(C)C)c(O)cc2O)c1-c1ccc(CN2CCOCC2)cc1 [Luminespib] + Nc1nc2[nH]cc(CCc3ccc(C(=O)N[C@@H](CCC(=O)O)C(=O)O)cc3)c2c(=O)[nH]1 [Pemetrexed] (partner 0.2 µM)
relative viability: 0.161
//
molecule: Cc1csc(=NC2CCCCC2)n1/N=C/c1ccc(O)c(O)c1O [MIM1] + Cc1nc(Nc2ncc(C(=O)Nc3c(C)cccc3Cl)s2)cc(N2CCN(CCO)CC2)n1 [Dasatinib] (partner 0.075 µM)
relative viability: 0.474
//
molecule: Cc1csc(=NC2CCCCC2)n1/N=C/c1ccc(O)c(O)c1O [MIM1] + CS(=O)(=O)N1CCN(Cc2cc3nc(-c4cccc5[nH]ncc45)nc(N4CCOCC4)c3s2)CC1 [Pictilisib] (partner 1 µM)
relative viability: 0.753
//
molecule: CCNC(=O)c1noc(-c2cc(C(C)C)c(O)cc2O)c1-c1ccc(CN2CCOCC2)cc1 [Luminespib] + N=C(N)NC(=N)NCCc1ccccc1 [Phenformin] (partner 250 µM)
relative viability: 0.168
//
molecule: CCNC(=O)c1noc(-c2cc(C(C)C)c(O)cc2O)c1-c1ccc(CN2CCOCC2)cc1 [Luminespib] + C[C@]1(O)C[C@@H](c2nc(-c3ccc4ccc(-c5ccccc5)nc4c3)c3c(N)nccn32)C1 [Linsitinib] (partner 1 µM)
relative viability: 0.181
//
molecule: CCNC(=O)c1noc(-c2cc(C(C)C)c(O)cc2O)c1-c1ccc(CN2CCOCC2)cc1 [Luminespib] + O=C(CCCCCCC(=O)Nc1ccccc1)NO [Vorinostat] (partner 1 µM)
relative viability: 0.152
//
molecule: Cc1csc(=NC2CCCCC2)n1/N=C/c1ccc(O)c(O)c1O [MIM1] + O=C(CCCCCCC(=O)Nc1ccccc1)NO [Vorinostat] (partner 1 µM)
relative viability: 0.501
//
molecule: Cc1csc(=NC2CCCCC2)n1/N=C/c1ccc(O)c(O)c1O [MIM1] + Cc1nc(NC(=O)N2CCC[C@H]2C(N)=O)sc1-c1ccnc(C(C)(C)C(F)(F)F)c1 [Alpelisib] (partner 2 µM)
relative viability: 0.952

====

test system: SK-LU-1; test: relative viability (nuclei count vs DMSO), 5 days (fraction); higher = more cells survive; settings: first compound 2 µM
Lab note: cut-off is 0.3. Strictly less in relative viability is MET. Exactly 0.3 or more is NOT MET.

compound: CN1CCN(CCOc2cc(OC3CCOCC3)c3c(Nc4c(Cl)ccc5c4OCO5)ncnc3c2)CC1 [Saracatinib] + O=C(CCCCCCC(=O)Nc1ccccc1)NO [Vorinostat] (partner 1 µM)
label.class: NOT MET
--
compound: CN1CCN(CCOc2cc(OC3CCOCC3)c3c(Nc4c(Cl)ccc5c4OCO5)ncnc3c2)CC1 [Saracatinib] + COc1cccc2cc(-c3nc([C@H]4CC[C@H](C(=O)O)CC4)n4ncnc(N)c34)[nH]c12 [OSI-027] (partner 0.5 µM)
label.class: MET
--
compound: Cc1csc(=NC2CCCCC2)n1/N=C/c1ccc(O)c(O)c1O [MIM1] + Cc1nc(Nc2ncc(C(=O)Nc3c(C)cccc3Cl)s2)cc(N2CCN(CCO)CC2)n1 [Dasatinib] (partner 0.075 µM)
label.class: MET
--
compound: CN1CCN(CCOc2cc(OC3CCOCC3)c3c(Nc4c(Cl)ccc5c4OCO5)ncnc3c2)CC1 [Saracatinib] + C[C@@H](Oc1cc(-c2cnn(C3CCNCC3)c2)cnc1N)c1c(Cl)ccc(F)c1Cl [Crizotinib] (partner 1 µM)
label.class: NOT MET
--
compound: CN1CCN(CCOc2cc(OC3CCOCC3)c3c(Nc4c(Cl)ccc5c4OCO5)ncnc3c2)CC1 [Saracatinib] + N=C(N)NC(=N)NCCc1ccccc1 [Phenformin] (partner 250 µM)
label.class: MET
--
compound: Cc1csc(=NC2CCCCC2)n1/N=C/c1ccc(O)c(O)c1O [MIM1] + C[C@]1(O)C[C@@H](c2nc(-c3ccc4ccc(-c5ccccc5)nc4c3)c3c(N)nccn32)C1 [Linsitinib] (partner 1 µM)
label.class: NOT MET
--
compound: Cc1csc(=NC2CCCCC2)n1/N=C/c1ccc(O)c(O)c1O [MIM1] + CC(=O)Nc1cccc(-n2c(=O)n(C3CC3)c(=O)c3c(Nc4ccc(I)cc4F)n(C)c(=O)c(C)c32)c1 [Trametinib] (partner 0.02 µM)
label.class: NOT MET

====

test system: NCI-H838; experiment: relative viability (nuclei count vs DMSO), 5 days (fraction); higher = more cells survive; conditions: first compound 0.2 µM
Collected relative viability values appear next to each entry.

molecule: CCNC(=O)c1noc(-c2cc(C(C)C)c(O)cc2O)c1-c1ccc(CN2CCOCC2)cc1 [Luminespib] + COc1cccc2cc(-c3nc([C@H]4CC[C@H](C(=O)O)CC4)n4ncnc(N)c34)[nH]c12 [OSI-027] (partner 0.5 µM)
relative viability: 0.149
--
molecule: CCNC(=O)c1noc(-c2cc(C(C)C)c(O)cc2O)c1-c1ccc(CN2CCOCC2)cc1 [Luminespib] + C[C@@H](Oc1cc(-c2cnn(C3CCNCC3)c2)cnc1N)c1c(Cl)ccc(F)c1Cl [Crizotinib] (partner 1 µM)
relative viability: 0.101
--
molecule: Cc1csc(=NC2CCCCC2)n1/N=C/c1ccc(O)c(O)c1O [MIM1] + O=C(CCCCCCC(=O)Nc1ccccc1)NO [Vorinostat] (partner 1 µM)
relative viability: 0.717
--
molecule: CN1CCN(CCOc2cc(OC3CCOCC3)c3c(Nc4c(Cl)ccc5c4OCO5)ncnc3c2)CC1 [Saracatinib] + CC(C)C[C@H](NC(=O)[C@H](Cc1ccccc1)NC(=O)c1cnccn1)B(O)O [Bortezomib] (partner 0.002 µM)
relative viability: 0.702
--
molecule: Cc1csc(=NC2CCCCC2)n1/N=C/c1ccc(O)c(O)c1O [MIM1] + Cc1nc(NC(=O)N2CCC[C@H]2C(N)=O)sc1-c1ccnc(C(C)(C)C(F)(F)F)c1 [Alpelisib] (partner 2 µM)
relative viability: 0.974

====

Entries and their relative viability values follow.
system: NCI-H2170; experiment: relative viability (nuclei count vs DMSO), 5 days (fraction); higher = more cells survive; conditions: first compound 0.001 µM

compound: Cc1cn(-c2cc(NC(=O)c3ccc(C)c(Nc4nccc(-c5cccnc5)n4)c3)cc(C(F)(F)F)c2)cn1 [Nilotinib] + CCNC(=O)c1noc(-c2cc(C(C)C)c(O)cc2O)c1-c1ccc(CN2CCOCC2)cc1 [Luminespib] (partner 0.01 µM)
relative viability: 0.591
--
compound: Cc1cn(-c2cc(NC(=O)c3ccc(C)c(Nc4nccc(-c5cccnc5)n4)c3)cc(C(F)(F)F)c2)cn1 [Nilotinib] + NC(=O)Nc1cc(-c2cccc(F)c2)sc1C(=O)N[C@H]1CCCNC1 [AZD7762] (partner 0.2 µM)
relative viability: 0.744

====

test system: NCI-H1915; test: relative viability (nuclei count vs DMSO), 5 days (fraction); higher = more cells survive; conditions: first compound 0.03162 µM
quantity.measured: relative viability

molecule: Cc1cn(-c2cc(NC(=O)c3ccc(C)c(Nc4nccc(-c5cccnc5)n4)c3)cc(C(F)(F)F)c2)cn1 [Nilotinib] + CS(=O)(=O)N1CCN(Cc2cc3nc(-c4cccc5[nH]ncc45)nc(N4CCOCC4)c3s2)CC1 [Pictilisib] (partner 1 µM)
subject.of.test: NCI-H1915
quantity.measured: relative viability
data.value: 0.993

molecule: Cc1cn(-c2cc(NC(=O)c3ccc(C)c(Nc4nccc(-c5cccnc5)n4)c3)cc(C(F)(F)F)c2)cn1 [Nilotinib] + O=C(CCCCCCC(=O)Nc1ccccc1)NO [Vorinostat] (partner 1 µM)
subject.of.test: NCI-H1915
quantity.measured: relative viability
data.value: 0.385

molecule: Cc1cn(-c2cc(NC(=O)c3ccc(C)c(Nc4nccc(-c5cccnc5)n4)c3)cc(C(F)(F)F)c2)cn1 [Nilotinib] + CS(=O)(=O)CCNCc1ccc(-c2ccc3ncnc(Nc4ccc(OCc5cccc(F)c5)c(Cl)c4)c3c2)o1 [Lapatinib] (partner 2 µM)
subject.of.test: NCI-H1915
quantity.measured: relative viability
data.value: 0.98

molecule: Cc1cn(-c2cc(NC(=O)c3ccc(C)c(Nc4nccc(-c5cccnc5)n4)c3)cc(C(F)(F)F)c2)cn1 [Nilotinib] + COc1cccc2cc(-c3nc([C@H]4CC[C@H](C(=O)O)CC4)n4ncnc(N)c34)[nH]c12 [OSI-027] (partner 0.5 µM)
subject.of.test: NCI-H1915
quantity.measured: relative viability
data.value: 0.567
